Data provenance: PubChem BioAssay AID1259343

# ASSAY INFO: Mycobacterium tuberculosis growth inhibition, primary screen (AID 1259343)
# MEASUREMENT CONDITIONS: at 10 µM, active compounds read high
Hit rate of the full screen: of about 6,200 compounds, about 2,900 (47%) were called active. The set was probably picked from earlier hits. This is one part of the list.
Class key for inhibition values: band 1 (below 20%), band 2 (20% to below 50%), band 3 (50% or more)

Study these solved cases before continuing.
- MOLECULE: "CCCCCCn1c(N2CCN(c3ccccc3)CC2)nc2c1c(=O)n(C)c(=O)n2C"
  DISCRETE LABEL: "band 3"
- MOLECULE: "O=C(C1COc2ccccc2O1)N1CCc2onc(-c3cccc(F)c3)c2C1 (stereo not drawn)"
  DISCRETE LABEL: "band 1"
- MOLECULE: "CC1Cc2ccccc2N1CCNC(=O)c1cc(Cl)ccc1F (stereo not drawn)"
  DISCRETE LABEL: "band 1"

Input: Which bin, given its inhibition, does O=C(CSc1ccc2nc(-c3ccccc3)cn2n1)c1ccccc1 occupy?
Output: band 3
